Hey, just so you know, these numbers are from the supplement of paper PMC12636033.

Listed sequences paired with reported PBM 8-mer E-score
system: 2Sp-muMax20 (muMax20 with two 2,6-bis(methyl)pyridine Cys staples); assay: PBM 8-mer E-score (E-score (rank enrichment, -0.5 to 0.5)); higher = stronger preferential binding
Whole data set: some 33,000 sequences, median “E-score (rank enrichment, -0.5 to 0.5)” near -0.0043, cut for the highest 2% near 0.24. Many of the other results were omitted from the sample, so the highest values are more common in it than they were.
Write the number on its own, no unit after it.

Study these solved cases before continuing.
| sequence-record | measured-target | readout-value |
| --- | --- | --- |
| CACCGCGG | 2Sp-muMax20 (muMax20 with two 2,6-bis(methyl)pyridine Cys staples) | -0.121 |
| AGCAACAG | 2Sp-muMax20 (muMax20 with two 2,6-bis(methyl)pyridine Cys staples) | -0.0291 |
| CAAAGGGA | 2Sp-muMax20 (muMax20 with two 2,6-bis(methyl)pyridine Cys staples) | -0.103 |

Asked: # query: PBM 8-mer E-score of entry CTCTATCA
Given back: -0.0317

Asked: # query: PBM 8-mer E-score of entry CTGGTAGC
Given back: -0.131

Asked: # query: PBM 8-mer E-score of entry TGTCTGAA
Given back: 0.0107

Asked: # query: PBM 8-mer E-score of entry AACGACTA
Given back: 0.0385

Asked: # query: PBM 8-mer E-score of entry ACGTGTAA
Given back: 0.173

Asked: # query: PBM 8-mer E-score of entry ATACCCAC
Given back: 0.197

Asked: # query: PBM 8-mer E-score of entry TAGGGACA
Given back: -0.0107

Asked: # query: PBM 8-mer E-score of entry CCTCTTAA
Given back: 0.0544
